FYI, the data here is from patent US10280156B2.

assay-metric: melting point

Recorded result, CCCOc1ccccc1C(=O)/C=C/c1cc2ccccc2[nH]1 [Compound 26] , melting point: 112 to 114 °C

Briefly, melting point measured for CCOc1cccc(C(=O)/C=C/c2ccc3[nH]ccc3c2)c1 [Compound 23] : 121 to 123 °C

Value of measured melting point for the entry CCOc1ccc(C(=O)/C=C/c2ccc3ccccc3c2)cc1 [Compound 17] : 159 to 161 °C

CCOc1cccc(C(=O)/C=C/c2ccc3ccccc3c2)c1 [Compound 16] yielded melting point of 97 to 100 °C

molecule CCOc1ccc(C(=O)/C=C/c2cc3ccccc3o2)cc1 [Compound 33] , melting point observed: 100 to 101 °C

Consider CCOc1ccccc1C(=O)/C=C/c1cc2ccccc2c2ccccc12 [Compound 12] . Its measured melting point is 117 to 120 °C

Memo: CCOc1cccc(C(=O)/C=C/c2cc3ccccc3[nH]2)c1 [Compound 20] , reported melting point: 156 to 158 °C

Given item CCCOc1ccccc1C(=O)/C=C/c1ccc2[nH]ccc2c1 [Compound 25] , the value recorded as its melting point is 114 to 116 °C

Input CCOc1cccc(C(=O)/C=C/c2csc3ccccc23)c1 [Compound 18] . Output melting point: 103 to 106 °C

Value of melting point reported for the molecule CCOc1ccccc1C(=O)/C=C/c1ccc2[nH]ccc2c1 [Compound 22] is 151 to 153 °C

Note to self: melting point recorded for CCOc1cccc(C(=O)/C=C/c2cc3ccccc3o2)c1 [Compound 32] was 127 to 129 °C

Recorded result, CCOc1ccccc1C(=O)/C=C/c1ccc2sccc2c1 [Compound 13] , melting point: 104 to 106 °C

Lab book: melting point of CCOc1ccccc1C(=O)/C=C/c1cc2ccccc2o1 [Compound 31] noted as 79 to 81 °C

Given item CCOc1ccc(C(=O)/C=C/c2cc3ccccc3[nH]2)cc1 [Compound 21] , the value recorded as its melting point is 178 to 181 °C

The molecule CCOc1ccccc1C(=O)/C=C/c1ccc2c(c1)OCO2 [Compound 9] showed melting point equal to 65 to 70 °C

Item: CCOc1ccccc1C(=O)/C=C/c1cc2ccccc2s1 [Compound 27] | melting point: 95 to 98 °C

Record summary for CCOc1ccccc1C(=O)/C=C/c1ccc2ccccc2c1 [Compound 1] : reported melting point = 96 to 97 °C

Per the records, this molecule ( CCOc1ccccc1C(=O)/C=C/c1cc2ccccc2[nH]1 [Compound 15] ) has melting point equal to 124 to 126 °C

Documented melting point of CCOc1cccc(C(=O)/C=C/c2ccc3sccc3c2)c1 [Compound 28] : 98 to 99 °C
